- System: Paracentrotus lividus
- ASSAY PROTOCOL: Antimitotic activity against Paracentrotus lividus embryo assessed as cleavage arrest treated 10 to 25 mins post fertilization followed by 45 to 60 mins before the first mitotic cycle completion by sea urchin embryo assay
- Format: functional
Each entry below carries its reported EC.
Supply the numeric figure in nM, leaving out any unit text.

Worked cases, EC given:
[
  {
    "MOLECULE": "COc1cc(OC)cc(C2C3=C(COC3=O)Nc3cc(OC)ccc32)c1 (stereo not given)",
    "EC [nM]": 10
  },
  {
    "MOLECULE": "COc1cc(-c2c3c(nc4c5c(ccc24)CCCC5)COC3=O)cc2c1OCO2",
    "EC [nM]": 2000
  },
  {
    "MOLECULE": "COc1cc(C2C3=C(O)OCC3=Nc3cc4c(cc32)OCCO4)cc(OC)c1OC (stereo not given)",
    "EC [nM]": 1000
  }
]

Recorded EC for COc1cc(C2C3=C(COC3=O)Nc3c2ccc2c3CCCC2)cc2c1OCO2 (stereo not given) with Paracentrotus lividus, please?
50

---

- System: A549
- ASSAY PROTOCOL: Cytotoxicity against human A549 cells assessed as cell viability after 24 hrs by MTT assay
- Assay type: functional, cell-based
- CONDITION NOTES: A549, 24 h
Each entry below carries its reported pIC50.
# reply with the number alone; pIC50 is -log10 of concentration in mol/L

What does the record list as pIC50 for COc1ccc2c(c1)NC1=C(C(=O)OC1)C2c1cc(OC)c2c(c1)OCO2 (stereo not drawn) ?
7.82

What does the record list as pIC50 for OC1=C2C(=Nc3cc4c(cc3C2c2ccccc2)OCO4)CO1 (stereo not drawn) ?
7.20

---

- Test system: P388
- ASSAY PROTOCOL: Cytotoxicity against mouse P388 cells assessed as cell viability after 48 hrs by trypan blue exclusion assay
- Assay type: functional, cell-based
- CONDITION NOTES: P388, 48 h
EXPERIMENTAL ENDPOINT: IC50 (nM)
Supply the numeric figure in nM, leaving out any unit text.

What does the record list as IC50 for COc1ccc(C2C3=C(COC3=O)Nc3cc4c(cc32)OCO4)cc1OC (configuration not stated) ?
131

---

- Tested on: Paracentrotus lividus
- ASSAY PROTOCOL: Antimitotic activity against Paracentrotus lividus embryo assessed as cleavage arrest treated 10 to 25 mins post fertilization followed by 45 to 60 mins before the first mitotic cycle completion by sea urchin embryo assay
- Assay type: functional
Each entry below carries its reported EC.
Supply the numeric figure in nM, leaving out any unit text.

[
  {
    "COMPOUND": "COc1cc([C@@H]2C3=C(COC3=O)Nc3cc4c(cc32)OCO4)cc2c1OCO2",
    "READOUT UNIT": "nM",
    "EC": 200
  },
  {
    "COMPOUND": "COc1cc(C2C3=C(COC3=O)Nc3cc4c(cc32)CCC4)cc2c1OCO2 (stereo not given)",
    "READOUT UNIT": "nM",
    "EC": 20
  },
  {
    "COMPOUND": "COc1cccc(C2C3=C(O)OCC3=Nc3cc4c(cc32)OCO4)c1 (stereo not given)",
    "READOUT UNIT": "nM",
    "EC": 20
  },
  {
    "COMPOUND": "COc1ccc(C2C3=C(O)OCC3=Nc3cc4c(cc32)OCO4)cc1 (stereo not given)",
    "READOUT UNIT": "nM",
    "EC": 200
  },
  {
    "COMPOUND": "COc1ccc2c(c1)NC1=C(C(=O)OC1)C2c1cc(OC)c2c(c1)OCO2 (stereo not given)",
    "READOUT UNIT": "nM",
    "EC": 5
  },
  {
    "COMPOUND": "COc1cc(C2C3=C(COC3=O)Nc3cc4c(cc32)CCCC4)cc(OC)c1OC (stereo not given)",
    "READOUT UNIT": "nM",
    "EC": 200
  },
  {
    "COMPOUND": "COc1cc(C2C3=C(COC3=O)Nc3cc4c(cc32)OCO4)cc2c1OCO2 (racemic)",
    "READOUT UNIT": "nM",
    "EC": 50
  }
]

What does the record list as EC for COc1cc(C2C3=C(COC3=O)Nc3cc4c(cc32)OCO4)c(OC)c2c1OCO2 (stereo not given) ?
2000

The origin of these recorded values is ChEMBL document CHEMBL1914380.
